Below, each entry is listed alongside its reported IC50.
- target: KRAS G12S (Homo sapiens (Human), UniProt P01116+P62937, G12S)
- Sequence (P01116 other isoform, or with tags, fused parts or gaps G12S): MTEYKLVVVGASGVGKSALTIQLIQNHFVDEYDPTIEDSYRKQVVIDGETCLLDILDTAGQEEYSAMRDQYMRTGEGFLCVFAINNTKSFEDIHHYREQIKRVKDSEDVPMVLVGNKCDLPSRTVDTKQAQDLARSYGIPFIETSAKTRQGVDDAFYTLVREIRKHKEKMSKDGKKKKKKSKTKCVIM
- Sequence (P62937 whole entry): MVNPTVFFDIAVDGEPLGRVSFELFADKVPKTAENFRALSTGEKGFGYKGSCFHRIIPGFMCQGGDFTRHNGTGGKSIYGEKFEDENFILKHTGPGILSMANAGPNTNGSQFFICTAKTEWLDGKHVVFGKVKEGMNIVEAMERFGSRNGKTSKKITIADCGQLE
- test name: Ras-Raf disruption/FRET/MOA assay (BRAF RBD, Cyclophilin A)
- Type: biochemical
- condition notes: read-out: KRAS G12S FRET IC50

{"compound": "CCn1c(-c2cccnc2[C@H](C)OC)c2c3cc(ccc31)-c1cc(O)cc(c1)C[C@H](NC(=O)[C@H](C(C)C)N(C)C(=O)[C@H]1CCN(C(=O)[C@@H](C)N(C)C)C1)C(=O)N1CCC[C@H](N1)C(=O)OCC(C)(C)C2 [Compound A386]", "IC50": "0.01 to 0.1 µM"}
{"compound": "CCn1c(-c2cccnc2[C@H](C)OC)c2c3cc(ccc31)-c1cc(O)cc(c1)C[C@H](NC(=O)[C@H](C(C)C)N(C)C(=O)[C@H]1CCN(C(C)=O)C1)C(=O)N1CCC[C@H](N1)C(=O)OCC(C)(C)C2 [Compound A5]", "IC50": "0.01 to 0.1 µM"}
{"compound": "CCn1c(-c2cccnc2COC)c2c3cc(ccc31)-c1cc(O)cc(c1)C[C@H](NC(=O)[C@H](C(C)C)N(C)C(=O)OC1COC1)C(=O)N1CCC[C@H](N1)C(=O)OCC(C)(C)C2 [Compound A39]", "IC50": "0.1 to 1 µM"}
{"compound": "CCn1c(-c2cccnc2[C@H](C)OC)c2c3cc(ccc31)-c1csc(n1)C[C@H](NC(=O)[C@H](C(C)C)N(C)C(=O)N(C)[C@@H]1CCN(C)C1)C(=O)N1CCC[C@H](N1)C(=O)OCC(C)(C)C2 [Compound A564]", "IC50": "0.1 to 1 µM"}
{"compound": "CCn1c(-c2cccnc2[C@H](C)OC)c2c3cc(ccc31)-c1cc(O)cc(c1)C[C@H](NC(=O)[C@H](C(C)C)N(C)C(=O)C1CN3CCCN1CC3)C(=O)N1CCC[C@H](N1)C(=O)OCC(C)(C)C2 (some centres unmarked) [Compound A404]", "IC50": "0.1 to 1 µM"}
{"compound": "CCn1c(-c2cccnc2[C@H](C)OC)c2c3cc(ccc31)-c1cc(O)cc(c1)C[C@H](NC(=O)[C@H](C(C)C)N(C)C(=O)C1CCNC13CCC3)C(=O)N1CCC[C@H](N1)C(=O)OCC(C)(C)C2 (some centres unmarked) [Compound A393]", "IC50": "0.01 to 0.1 µM"}
{"compound": "CCn1c(-c2cccnc2[C@H](C)OC)c2c3cc(ccc31)-c1cc(O)cc(c1)C[C@H](NC(=O)[C@H](C(C)C)N(C)C(=O)[C@@H]1C[C@@H]1F)C(=O)N1CCC[C@H](N1)C(=O)OCC(C)(C)C2 [Compound A160]", "IC50": "0.1 to 1 µM"}
{"compound": "CCn1c(-c2cccnc2[C@H](C)OC)c2c3cc(ccc31)-c1csc(n1)C[C@H](NC(=O)[C@H](C(C)C)N(C)C(=O)N1CC(O)(CN(C)C)C1)C(=O)N1CCC[C@H](N1)C(=O)OCC(C)(C)C2 [Compound A597]", "IC50": "0.1 to 1 µM"}
{"compound": "CCn1c(-c2cccnc2[C@H](C)OC)c2c3cc(ccc31)-c1cc(O)cc(c1)C[C@H](NC(=O)[C@H](C(C)C)N(C)C(=O)[C@@H]1OCC[C@@H]1c1ccccc1)C(=O)N1CCC[C@H](N1)C(=O)OCC(C)(C)C2 [Compound A415]", "IC50": "0.01 to 0.1 µM"}
{"compound": "CCn1c(-c2cccnc2[C@H](C)OC)c2c3cc(ccc31)-c1csc(n1)[C@@H](OCC1CCN(C)CC1)[C@H](NC(=O)[C@H]1C[C@@H]1C)C(=O)N1CCC[C@H](N1)C(=O)OCC(C)(C)C2 [Compound A451]", "IC50": "0.1 to 1 µM"}
{"compound": "CCn1c(-c2cccnc2[C@H](C)OC)c2c3cc(ccc31)-c1csc(n1)C[C@H](NC(=O)[C@H](C(C)C)N1CCCN(C)C1=O)C(=O)N1CCC[C@H](N1)C(=O)OCC(C)(C)C2 [Compound A317]", "IC50": "1 to 10 µM"}
{"compound": "CCn1c(-c2cccnc2[C@H](C)OC)c2c3cc(ccc31)-c1cc(O)cc(c1)C[C@H](NC(=O)[C@H](C(C)C)N(C)C(=O)C1(F)CC1)C(=O)N1CCC[C@H](N1)C(=O)OCC(C)(C)C2 [Compound A165]", "IC50": "0.01 to 0.1 µM"}
{"compound": "CCn1c(-c2cnccc2COC)c2c3cc(ccc31)-c1cc(O)cc(c1)C[C@H](NC(=O)[C@H](C(C)C)N(C)C(=O)[C@H]1CCN(C[C@H](C)O)C1)C(=O)N1CCC[C@H](N1)C(=O)OCC(C)(C)C2 [Compound A47]", "IC50": "0.1 to 1 µM"}
{"compound": "CCn1c(-c2cccnc2[C@H](C)OC)c2c3cc(ccc31)-c1csc(n1)C[C@H](NC(=O)[C@H](C(C)C)N(C)C(=O)N1CCC[C@@H]1CN(C)C)C(=O)N1CCC[C@H](N1)C(=O)OCC(C)(C)C2 [Compound A518]", "IC50": "0.1 to 1 µM"}
{"compound": "CCn1c(-c2cccnc2[C@H](C)OC)c2c3cc(ccc31)-c1csc(n1)C[C@H](NC(=O)[C@H](C(C)C)N(C)C(=O)N1CC3CC(C1)O3)C(=O)N1CCC[C@H](N1)C(=O)OCC(C)(C)C2 [Compound A301]", "IC50": "0.1 to 1 µM"}
{"compound": "CCn1c(-c2cccnc2[C@H](C)OC)c2c3cc(ccc31)-c1cc(O)cc(c1)C[C@H](NC(=O)[C@H](C(C)C)N(C)C(=O)[C@H]1CC1(C)C)C(=O)N1CCC[C@H](N1)C(=O)OCC(C)(C)C2 [Compound A158]", "IC50": "0.1 to 1 µM"}
{"compound": "CCn1c(-c2cccnc2[C@H](C)OC)c2c3cc(ccc31)-c1csc(n1)C[C@H](NC(=O)[C@H](C(C)C)N(C)C(=O)N1CC[C@@H](F)[C@H](N)C1)C(=O)N1CCC[C@H](N1)C(=O)OCC(C)(C)C2 [Compound A559]", "IC50": "0.1 to 1 µM"}
